Biological target: 5-HT2B receptor (Homo sapiens, UniProt P41595)
Construct: expressed in transfected cells; host or cells: HEK293
Sequence (P41595 whole entry): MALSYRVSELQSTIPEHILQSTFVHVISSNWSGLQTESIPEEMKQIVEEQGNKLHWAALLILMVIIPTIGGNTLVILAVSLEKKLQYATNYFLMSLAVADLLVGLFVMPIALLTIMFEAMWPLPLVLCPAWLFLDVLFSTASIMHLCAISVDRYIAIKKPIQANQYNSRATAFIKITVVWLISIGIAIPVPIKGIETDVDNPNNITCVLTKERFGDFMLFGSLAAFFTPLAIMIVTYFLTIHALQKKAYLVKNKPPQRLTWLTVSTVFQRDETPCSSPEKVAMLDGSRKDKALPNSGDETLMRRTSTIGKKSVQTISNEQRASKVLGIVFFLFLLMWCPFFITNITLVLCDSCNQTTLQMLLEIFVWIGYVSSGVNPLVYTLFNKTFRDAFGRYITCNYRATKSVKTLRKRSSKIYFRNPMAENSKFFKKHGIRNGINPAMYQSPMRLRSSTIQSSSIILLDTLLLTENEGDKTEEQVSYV
Experiment: Radioligand binding assay, [125I]DOI competition
Settings: HEK293 cell membranes, read-out: DOI Binding Ki 2B
TEST READOUT: Ki

For every record below, what is its Ki?
1. O=C(NCC(F)F)c1ccc2c3c1C1(CCC1)CN3CCNC2
2. CCC1CN2CCNCc3ccc(C(=O)NCC(F)F)c1c32 (single isomer, unassigned) [2nd eluting enantiomer in example 1.5]

1: 6.81 µM; 2: 92.3 µM
